# TESTED_ON: 5-hydroxytryptamine receptor 1D (Homo sapiens)
# Sequence (P28221 whole entry): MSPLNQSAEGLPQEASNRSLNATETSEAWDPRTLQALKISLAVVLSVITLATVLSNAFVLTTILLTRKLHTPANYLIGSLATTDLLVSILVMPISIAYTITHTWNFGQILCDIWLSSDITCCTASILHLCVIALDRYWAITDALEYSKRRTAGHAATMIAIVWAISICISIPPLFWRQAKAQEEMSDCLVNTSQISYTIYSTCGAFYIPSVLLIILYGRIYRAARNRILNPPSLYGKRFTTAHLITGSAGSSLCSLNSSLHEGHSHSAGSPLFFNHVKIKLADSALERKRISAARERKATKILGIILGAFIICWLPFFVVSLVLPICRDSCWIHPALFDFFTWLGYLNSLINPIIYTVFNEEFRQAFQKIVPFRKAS
# EXPERIMENT_NOTES: Agonist-induced [35S]- GTPgammaS binding in CHO cells stably transfected with 5-hydroxytryptamine 1D receptor
Each entry below lists one item and its recorded pEC50 value.
Keep it numeric: pEC50 is minus log10 of the concentration in mol/L.

> print(dat)
                                   molecule  value.type  value
1  OC[C@H](NC1CCN(CCCc2c[nH]c3ccc(-n4ccnc4)cc23)CC1)c1ccccc1       pEC50   9.10
2  O[C@@H]1Cc2ccccc2[C@H]1NC1CCN(CCCc2c[nH]c3ccc(-n4cnnc4)cc23)CC1       pEC50   7.89

# ---- query molecule ----
Qu. What measured pEC50 goes with `c1cc(CNC2CCN(CCCc3c[nH]c4ccc(-n5cnnc5)cc34)CC2)co1` ?
Ans. 8.15

====

# TESTED_ON: 5-hydroxytryptamine receptor 1D (Homo sapiens)
# EXPERIMENT_NOTES: Maximum stimulation of [35S]GTP-gamma-S, binding in CHO cells expressing human 5-HT-1d relative to 5-HT
# Format: functional, cell-based
VALUE_TYPE: Efficacy
Give me the value, and tack the unit on after it.

Recorded Efficacy, per entry:
> print(dat)
                                   compound                                 tested.on  value
1  c1ccc(CNCC2CCN(CCCc3c[nH]c4ccc(-n5cnnc5)cc34)CC2)cc1  5-hydroxytryptamine receptor 1D (Homo sapiens)   101%
2  OC[C@H](NC1CCN(CCCc2c[nH]c3ccc(Cn4cncn4)cc23)CC1)c1ccccc1  5-hydroxytryptamine receptor 1D (Homo sapiens)    76%
3  C[C@@H](O)[C@H](NC1CCN(CCCc2c[nH]c3ccc(-n4cnnc4)cc23)CC1)c1ccccc1  5-hydroxytryptamine receptor 1D (Homo sapiens)    85%

Qu. What measured Efficacy goes with c1ccc(C2CCCCN2C2CCN(CCCc3c[nH]c4ccc(-n5cnnc5)cc34)CC2)cc1 (stereo not given) ?
Ans. 65%

Qu. What measured Efficacy goes with `O=S(=O)(NCC1CCN(CCCc2c[nH]c3ccc(-n4cnnc4)cc23)CC1)c1ccccc1` ?
Ans. 73%

Qu. What measured Efficacy goes with `C[C@H](NC1CCN(CCCc2c[nH]c3ccc(-n4cnnc4)cc23)CC1)c1ccccc1` ?
Ans. 76%

Qu. What measured Efficacy goes with CC(NC1CCN(CCCc2c[nH]c3ccc(-n4cnnc4)cc23)CC1)c1ccc(F)cc1 (stereo not given) ?
Ans. 99%

Qu. What measured Efficacy goes with c1ccc2c(c1)CCC2NCC1CCN(CCCc2c[nH]c3ccc(-n4cnnc4)cc23)CC1 (stereo not given) ?
Ans. 78%

Qu. What measured Efficacy goes with `CN(Cc1cccs1)C1CCN(CCCc2c[nH]c3ccc(-n4cnnc4)cc23)CC1` ?
Ans. 81%

Qu. What measured Efficacy goes with `O[C@@H]1Cc2ccccc2[C@H]1NC1CCN(CCCc2c[nH]c3ccc(-n4cnnc4)cc23)CC1` ?
Ans. 75%

====

# EXPERIMENT_NOTES: Ratio of IC50 for human 5-HT1B to human 5-HT1D receptors
Each entry below lists one item and its recorded Selectivity value.
Answer as a number with no unit attached.

> print(dat)
                                   compound   value.type  value
1  CC(=O)Nc1ccc(CCNC2CCN(CCCc3c[nH]c4ccc(-n5cnnc5)cc34)CC2)cc1  Selectivity     14
2  c1ccc2c(c1)CCC2NC1CCN(CCCc2c[nH]c3ccc(-n4cnnc4)cc23)CC1 (stereo not given)  Selectivity     31

Qu. What measured Selectivity goes with `CN(CC1CCN(CCCc2c[nH]c3ccc(-n4cnnc4)cc23)CC1)C(=O)Nc1ccccc1` ?
Ans. 1.1

Qu. What measured Selectivity goes with `c1cc(CNC2CCN(CCCc3c[nH]c4ccc(-n5cnnc5)cc34)CC2)ccn1` ?
Ans. 5.8

Qu. What measured Selectivity goes with `CC(=O)Nc1ccc(CNCC2CCN(CCCc3c[nH]c4ccc(-n5cnnc5)cc34)CC2)cc1` ?
Ans. 2.1
